Entry source: PubChem BioAssay (NCATS)

# measured_target: Ubiquitin carboxyl-terminal hydrolase 1 (Homo sapiens) (UniProt O94782)
# Sequence (O94782 whole entry, looked up): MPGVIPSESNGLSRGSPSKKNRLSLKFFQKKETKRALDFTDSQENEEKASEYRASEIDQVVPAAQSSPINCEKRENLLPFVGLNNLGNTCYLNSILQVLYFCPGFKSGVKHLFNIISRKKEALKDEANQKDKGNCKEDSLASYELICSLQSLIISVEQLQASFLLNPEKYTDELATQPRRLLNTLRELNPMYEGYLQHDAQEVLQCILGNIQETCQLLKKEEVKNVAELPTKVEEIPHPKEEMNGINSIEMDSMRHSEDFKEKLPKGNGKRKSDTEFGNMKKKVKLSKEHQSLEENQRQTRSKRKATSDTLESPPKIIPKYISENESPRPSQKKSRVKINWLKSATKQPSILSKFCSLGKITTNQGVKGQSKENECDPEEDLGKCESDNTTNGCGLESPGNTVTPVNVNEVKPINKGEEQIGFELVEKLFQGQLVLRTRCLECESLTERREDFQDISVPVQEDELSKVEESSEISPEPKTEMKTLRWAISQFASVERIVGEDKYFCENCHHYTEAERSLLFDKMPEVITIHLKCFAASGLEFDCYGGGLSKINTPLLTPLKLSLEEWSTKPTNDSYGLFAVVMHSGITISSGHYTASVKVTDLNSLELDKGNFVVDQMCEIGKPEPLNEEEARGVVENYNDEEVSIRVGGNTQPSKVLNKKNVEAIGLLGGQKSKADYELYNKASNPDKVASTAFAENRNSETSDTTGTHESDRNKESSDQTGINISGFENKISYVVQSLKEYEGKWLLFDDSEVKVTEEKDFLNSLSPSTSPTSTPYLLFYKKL
# protocol_details: Inhibitors of USP1/UAF1: Pilot qHTS (AID 504865); further: nearly all actives have a fitted effect of over 35% in size
# conditions: purified USP1/UAF1, Ub-rhodamine cleavage fluorescence; series mostly up to 114 µM
Results filed as inconclusive are left out. The source made the active and inactive calls. The call rests on the fitted dose curve; in most records, active means well fitted inhibition curve with a large enough effect; inconclusive means small, poorly fitted or top-dose-only effect; inactive means flat fitted curve, though single readings scatter.
Your reply should match one of these outcome classes. 1 = active, -1 = inactive

Input line: Field: outcome | Entry: Cc1nnc2n1-c1ccc(Cl)cc1C(c1ccccc1Cl)=NC2
Output line: -1

Input line: Repeat for the following molecule: CCC1(CC)C(=O)C=CNC1=O
Output line: -1

Input line: Repeat for the following molecule: CC(C)N(CCC(C(N)=O)(c1ccccc1)c1ccccn1)C(C)C (stereo unspecified)
Output line: -1

Input line: Repeat for the following molecule: O=C1OC(c2ccc(O)c(S(=O)(=O)O)c2)(c2ccc(O)c(S(=O)(=O)O)c2)c2c(Br)c(Br)c(Br)c(Br)c21
Output line: 1

Input line: Repeat for the following molecule: CN1C(=O)CCS(=O)(=O)C1c1ccc(Cl)cc1 (stereo unspecified)
Output line: -1

Input line: Repeat for the following molecule: C[C@]12CC[C@@H]3c4ccc(OC(=O)N(CCCl)CCCl)cc4CC[C@H]3[C@@H]1CC[C@@H]2O
Output line: 1

Input line: Repeat for the following molecule: NC(=O)c1cc([N+](=O)[O-])cc([N+](=O)[O-])c1
Output line: -1

Input line: Repeat for the following molecule: C=C(C)[C@H]1CN[C@H](C(=O)O)[C@H]1CC(=O)O
Output line: -1

---
Input line: Field: outcome | Entry: COc1ccc2c(c1)C13CCCC[C@@H]1C(C2)N(C)CC3 (stereo partly specified)
Output line: -1

Input line: Repeat for the following molecule: CC(C)c1cccc(C(C)C)c1O
Output line: -1

Input line: Repeat for the following molecule: CCOP(=S)(OCC)Oc1ccc2c(C)c(Cl)c(=O)oc2c1
Output line: -1
